Catalogue of substances with associated MIC P. mirabilis
Test system: Proteus mirabilis
Assay Info: MIC against Gram-negative bacteria: Proteus mirabilis
Format: cell-based
Conditions: 10 h cultivation at 37° C., 5×10^5 CFU/mL, two-fold serial dilution
Method: 1. Gram-negative bacteria, such as E. coli BL21, Pseudomonas aeruginosa, Klebsiella pneumonia, Enterobacter cloacae, Aeromonas hydrophila, Citrobacter diversus, Moraxella catarrhalis, Proteus mirabilis, Proteus vulgaris, Serratia marcescens, etc were streaked on solid LB medium and cultured respectively. Then, typical clones were picked, inoculated into common liquid LB medium respectively, and cultured at 37° C. with shaking at 185 rpm until the McFarland specific turbidity was 0.5. […]
Please answer using the number first and the unit second.

PRT1165 (NRAICRQGCSPKHGSCKLPGDCRCQYGWQGLYCD; listed as Homo sapiens) : 50 µg/mL

// query Return reported MIC P. mirabilis; argument: PRT1175 (AEHACLSDPCHNRGSCKETSLGFECECSPGWTGPTCS; listed as Homo sapiens)
// result 25 µg/mL

// query Return reported MIC P. mirabilis; argument: PRT1044 (FGQDCAETCDCAPDARCFPANGACLCEHGFTGDRCT; listed as Homo sapiens)
// result 12.5 µg/mL

* * *

Catalogue of substances with associated MIC E. cloacae
System: Enterobacter cloacae
Assay Info: MIC against Gram-negative bacteria: Enterobacter cloacae
Assay type: cell-based
Conditions: 10 h cultivation at 37° C., 5×10^5 CFU/mL, two-fold serial dilution
Answer with a number only, understood to be in µg/mL.

Worked examples follow.
PRT1151 (QFASCENNPCGNGATCVPKSGTDIVCLCPYGRSGPLCT; listed as Homo sapiens) : 25
PRT1169 (RDSQCDEATCNNGGTCYDEGDAFKCMCPGGWEGTTCN; listed as Homo sapiens) : 12.5
PRT1095 (EVQWCGFSPCPHGAQCQPVLQGFECIANAVFNGQSGQ; listed as Homo sapiens) : 12.5
PRT1048 (YGKRCVPCKCANHSFCHPSNGTCYCLAGWTGPDCS; listed as Homo sapiens) : 12.5
PRT1186 (KNSSCLPNPCVNGGTCVGSGASFSCICRDGWEGRTCT; listed as Homo sapiens) : 50

// query Return reported MIC E. cloacae; argument: PRT1179 (DIDECASNPCLNGGHCQNEINRFQCLCPTGFSGNLCQ; listed as Homo sapiens)
// result 50

* * *

System: E. coli BL21
Assay Info: MIC against Gram-negative bacteria: E. coli BL21
Format: cell-based
Conditions: 10 h cultivation at 37° C., 5×10^5 CFU/mL, two-fold serial dilution
Catalogue of substances with associated MIC E. coli BL21
Answer with a number only, understood to be in µg/mL.

Worked examples follow.
PRT1095 (EVQWCGFSPCPHGAQCQPVLQGFECIANAVFNGQSGQ; listed as Homo sapiens) : 12.5
PRT1132 (DEHICTTQSPCQNGGQCMYDGGGEYHCVCLPGFHGRDCE; listed as Homo sapiens) : 12.5
PRT1136 (KQQFCQESLSSEFCSGHGKCLSEAWSKTYSCHCQPPFSGKYCQ; listed as Homo sapiens) : 12.5
PRT1088 (PVNPCCYYPCQHQGICVRFGLDRYQCDCTRTGYSGPNCT; listed as Homo sapiens) : 50
PRT1046 (WGFSCNASCQCAHEAVCSPQTGACTCTPGWHGAHCQ; listed as Homo sapiens) : 25

// query Return reported MIC E. coli BL21; argument: PRT1179 (DIDECASNPCLNGGHCQNEINRFQCLCPTGFSGNLCQ; listed as Homo sapiens)
// result 50

// query Return reported MIC E. coli BL21; argument: PRT1126 (DVRACSSAPCANNRTCVSLDDGLYECSCAPGYSGKDCQ; listed as Homo sapiens)
// result 50

// query Return reported MIC E. coli BL21; argument: PRT1103 (DHDECASSPCQNGAVCQDGIDGYSCFCVPGYQGRHCD; listed as Homo sapiens)
// result 25

// query Return reported MIC E. coli BL21; argument: PRT1149 (APSVCQQDVCHNGGTCHAIFLSSGIVSFQCDCPLHFTGRFCE; listed as Homo sapiens)
// result 25

// query Return reported MIC E. coli BL21; argument: PRT1167 (NINDCESNPCRNGGTCIDGVNSYKCICSDGWEGAYCE; listed as Homo sapiens)
// result 25

// query Return reported MIC E. coli BL21; argument: PRT1142 (DVNKCKISPCLDEENCVYRTDGYNCLCAPGYTGINCE; listed as Homo sapiens)
// result 50

// query Return reported MIC E. coli BL21; argument: PRT1049 (WGENCAQTCQCHHGGTCHPQDGSCICPLGWTGHHCL; listed as Homo sapiens)
// result 25

// query Return reported MIC E. coli BL21; argument: PRT1090 (NNTRCLSNSCQNNSTCKDFSKDNDCSCSDTANNLDKDCD; listed as Homo sapiens)
// result 12.5

// query Return reported MIC E. coli BL21; argument: PRT1116 (DIDECASRPCHHGATCRNLADRYECHCPLGYAGVTCE; listed as Homo sapiens)
// result 12.5

// query Return reported MIC E. coli BL21; argument: PRT1187 (NTNDCNPLPCYNGGICVDGVNWFRCECAPGFAGPDCR; listed as Homo sapiens)
// result 25

// query Return reported MIC E. coli BL21; argument: PRT1087 (HEEPCGPSHKSFCLNGGLCYVIPTIPSPFCRCVENYTGARCE; listed as Homo sapiens)
// result 12.5
